molecular target: LRRK2 wild type (recombinant human, catalytic domain amino acids 970-2527, GST-tagged) (Homo sapiens, UniProt Q5S007); construct: The wild type used was recombinant human, catalytic domain (amino acids 970-2527) GST-tagged, expressed in insect cells; GST; purchased Invitrogen Corporation PV4873; host or cells: insect cells; experiment: LRRK2 wild type protein kinase assay ([γ-33P] ATP, peptide substrate […]), IC50; format: biochemical; conditions: LRRK2 (variant not given); read-out: Potency score, LRRK2 IC50
Sequence (Q5S007 970-2527): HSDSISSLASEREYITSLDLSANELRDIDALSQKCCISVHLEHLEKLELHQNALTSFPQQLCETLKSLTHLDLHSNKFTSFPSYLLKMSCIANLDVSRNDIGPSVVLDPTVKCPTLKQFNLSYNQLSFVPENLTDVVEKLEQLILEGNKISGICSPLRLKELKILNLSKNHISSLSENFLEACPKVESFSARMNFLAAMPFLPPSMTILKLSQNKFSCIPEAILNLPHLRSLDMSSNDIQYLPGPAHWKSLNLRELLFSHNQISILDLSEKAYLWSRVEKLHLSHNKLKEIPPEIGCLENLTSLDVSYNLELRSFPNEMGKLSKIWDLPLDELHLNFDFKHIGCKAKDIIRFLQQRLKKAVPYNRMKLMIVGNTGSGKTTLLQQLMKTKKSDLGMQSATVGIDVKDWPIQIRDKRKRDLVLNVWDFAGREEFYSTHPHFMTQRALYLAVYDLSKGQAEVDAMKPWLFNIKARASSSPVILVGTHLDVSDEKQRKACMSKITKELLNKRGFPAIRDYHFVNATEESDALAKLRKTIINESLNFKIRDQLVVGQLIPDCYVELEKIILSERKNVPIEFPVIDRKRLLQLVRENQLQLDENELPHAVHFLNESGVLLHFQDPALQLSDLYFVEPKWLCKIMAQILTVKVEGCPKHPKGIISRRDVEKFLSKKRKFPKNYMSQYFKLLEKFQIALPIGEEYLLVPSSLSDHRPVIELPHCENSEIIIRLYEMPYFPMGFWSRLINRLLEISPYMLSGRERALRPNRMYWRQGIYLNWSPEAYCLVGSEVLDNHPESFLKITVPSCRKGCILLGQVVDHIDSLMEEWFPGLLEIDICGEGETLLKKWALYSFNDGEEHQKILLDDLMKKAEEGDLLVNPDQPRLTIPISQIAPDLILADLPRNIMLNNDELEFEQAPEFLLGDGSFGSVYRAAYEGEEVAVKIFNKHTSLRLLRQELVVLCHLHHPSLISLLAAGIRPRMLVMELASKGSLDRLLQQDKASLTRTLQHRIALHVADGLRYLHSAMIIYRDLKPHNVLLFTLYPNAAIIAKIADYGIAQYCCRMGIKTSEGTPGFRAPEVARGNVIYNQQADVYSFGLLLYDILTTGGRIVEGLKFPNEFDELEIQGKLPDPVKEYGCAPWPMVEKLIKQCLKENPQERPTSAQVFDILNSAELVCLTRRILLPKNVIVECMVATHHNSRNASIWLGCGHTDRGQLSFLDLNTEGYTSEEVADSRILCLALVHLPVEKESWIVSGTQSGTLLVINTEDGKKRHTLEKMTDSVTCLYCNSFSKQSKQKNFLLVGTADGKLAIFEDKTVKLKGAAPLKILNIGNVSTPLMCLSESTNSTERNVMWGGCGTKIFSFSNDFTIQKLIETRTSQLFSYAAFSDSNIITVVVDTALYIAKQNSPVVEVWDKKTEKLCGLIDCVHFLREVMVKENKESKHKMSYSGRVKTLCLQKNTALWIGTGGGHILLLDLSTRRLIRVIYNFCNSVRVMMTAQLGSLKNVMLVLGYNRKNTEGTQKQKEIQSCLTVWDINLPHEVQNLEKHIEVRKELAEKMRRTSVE
measurement.label: IC50

>>> result("CC[C@@H](C)Nc1nccc2[nH]nc(C)c12")
"1000 to 10000 nM"
>>> result("Cc1n[nH]c2ccnc(C3CCCC3)c12")
"100 to 1000 nM"
>>> result("CO[C@@H](C)COc1nccc2[nH]nc(C)c12")
"1000 to 10000 nM"
>>> result("Cc1ccc(-c2n[nH]c3ccnc(NC4CCCCC4)c23)cc1")
"100 to 1000 nM"
>>> result("CC[C@@H](C)Oc1nccc2[nH]nc(C)c12")
"< 100 nM"
>>> result("Cc1n[nH]c2ccnc(O[C@H]3C[C@@H]4CC[C@H]3C4)c12 (racemic)")
"100 to 1000 nM"
>>> result("Cc1n[nH]c2ccnc(Nc3cccc(C#N)c3)c12")
"100 to 1000 nM"

====

Overview of recorded pIC50 for various compounds
molecular target: LRRK2 wild type (recombinant human, catalytic domain amino acids 970-2527, GST-tagged) (Homo sapiens, UniProt Q5S007); construct: The wild type used was recombinant human, catalytic domain (amino acids 970-2527) GST-tagged, expressed in insect cells; GST; test: LRRK2 wild type protein kinase assay ([γ-33P] ATP, peptide substrate […]), IC50; conditions: LRRK2 (variant not given); read-out: Potency score, LRRK2 IC50
pIC50: −log10 of the molar value.
measurement.label: pIC50

>>> result("Cc1n[nH]c2ccnc(Nc3cc(F)ccc3F)c12")
"6.00 to 7.00"
>>> result("CCOc1ccc(Nc2nccc3[nH]nc(C)c23)cc1")
"6.00 to 7.00"
>>> result("Cc1n[nH]c2ccnc(N[C@H]3CC[C@H](O)CC3)c12")
"6.00 to 7.00"
>>> result("Nc1cccc(CCc2n[nH]c3ccnc(NC4CCCCC4)c23)c1")
"> 7.00"
>>> result("Cc1n[nH]c2ccnc(NC3CCCC3)c12")
"6.00 to 7.00"

====

Overview of recorded IC50 for various molecules
biological target: LRRK2 wild type (recombinant human, catalytic domain amino acids 970-2527, GST-tagged) (Homo sapiens, UniProt Q5S007); construct: The wild type used was recombinant human, catalytic domain (amino acids 970-2527) GST-tagged, expressed in insect cells; GST; purchased Invitrogen Corporation PV4873; host or cells: insect cells; assay: LRRK2 wild type protein kinase assay ([γ-33P] ATP, peptide substrate […]), IC50; format: biochemical; details: LRRK2 (variant not given); read-out: Potency score, LRRK2 IC50
measurement.label: IC50

>>> result("Cc1n[nH]c2ccnc(Nc3ccc(N4CCOCC4)cc3)c12 [Example 85]")
"100 to 1000 nM"
>>> result("Cc1ccccc1Nc1nccc2[nH]nc(C)c12 [Example 320]")
"100 to 1000 nM"
>>> result("CC1CN(C(=O)c2ccc(CCc3n[nH]c4ccnc(NC5CCCCC5)c34)cc2)CCN1C (stereo not shown) [Example 247]")
"< 100 nM"
>>> result("Cc1n[nH]c2ccnc(NCc3cccc(Cl)c3)c12 [Example 314]")
"1000 to 10000 nM"
>>> result("N#Cc1cccc(-c2n[nH]c3ccnc(NC4CCCCC4)c23)c1 [Example 150]")
"100 to 1000 nM"
>>> result("Cc1n[nH]c2ccnc(NCc3ccc(F)cc3)c12 [Example 316]")
"1000 to 10000 nM"
>>> result("Cn1cc(-c2n[nH]c3ccnc(NC4CCCCC4)c23)cn1 [Example 162]")
"100 to 1000 nM"
>>> result("COCCNC(=O)c1ccc(Nc2nccc3[nH]nc(C)c23)cc1 [Example 108]")
"1000 to 10000 nM"
>>> result("Cc1n[nH]c2ccnc(N[C@@H](C)C(C)C)c12 [Example 40]")
"100 to 1000 nM"
>>> result("O=C(CCc1n[nH]c2ccnc(NC3CCCCC3)c12)N1CCC(c2ccncc2)C1 (stereo not shown) [Example 209]")
"< 100 nM"
>>> result("Cc1n[nH]c2ccnc(NCC3CC3)c12 [Example 18]")
"1000 to 10000 nM"
>>> result("Cc1n[nH]c2ccnc(NCC3CCCCC3)c12 [Example 325]")
"1000 to 10000 nM"
>>> result("CCOc1ccccc1Nc1nccc2[nH]nc(C)c12 [Example 68]")
"100 to 1000 nM"
>>> result("Cc1n[nH]c2ccnc(NCC3CCCO3)c12 (stereo not shown) [Example 304]")
"1000 to 10000 nM"
>>> result("Cc1n[nH]c2ccnc(NCC(C)(C)C)c12 [Example 32]")
"1000 to 10000 nM"
>>> result("CN1CCN(C(=O)CCc2n[nH]c3ccnc(NC4CCCCC4)c23)CC1c1ccccc1 (stereo not shown) [Example 245]")
"100 to 1000 nM"
>>> result("Cc1n[nH]c2ccnc(Nc3ccc(Cl)c(Cl)c3)c12 [Example 305]")
"100 to 1000 nM"
>>> result("Cc1n[nH]c2ccnc(N3CCOCC3)c12 [Example 10]")
"1000 to 10000 nM"
>>> result("Cc1n[nH]c2ccnc(N3CCN(c4cccc(Cl)c4)CC3)c12 [Example 7]")
"1000 to 10000 nM"
>>> result("Cc1n[nH]c2ccnc(NCC3CCOCC3)c12 [Example 17]")
"1000 to 10000 nM"
>>> result("Cc1n[nH]c2ccnc(NCCc3c[nH]c4ccccc34)c12 [Example 342]")
"1000 to 10000 nM"
>>> result("CCN(CC)C(=O)CCc1n[nH]c2ccnc(NC3CCCCC3)c12 [Example 181]")
"100 to 1000 nM"
>>> result("Cc1n[nH]c2ccnc(O[C@H](C)C(C)C)c12 [Example 288]")
"< 100 nM"
>>> result("Cc1n[nH]c2ccnc(OCCC(F)(F)F)c12 [Example 295]")
"100 to 1000 nM"
>>> result("COC(=O)c1ccc(CCc2n[nH]c3ccnc(NC4CCCCC4)c23)cc1 [Example 232]")
"100 to 1000 nM"
>>> result("Cc1n[nH]c2ccnc(NCCc3ccccn3)c12 [Example 2]")
"1000 to 10000 nM"
>>> result("O=C(CCc1n[nH]c2ccnc(NC3CCCCC3)c12)N1CCCCC1c1cccnc1 (stereo not shown) [Example 208]")
"< 100 nM"
>>> result("O=C(CCc1n[nH]c2ccnc(NC3CCCCC3)c12)N1CCC(c2cccnc2)C1 (stereo not shown) [Example 207]")
"< 100 nM"
>>> result("O=C(CCc1n[nH]c2ccnc(NC3CCCCC3)c12)N1CCC[C@@H](c2ccccc2)C1 [Example 190]")
"100 to 1000 nM"
>>> result("Cc1n[nH]c2ccnc(Nc3ccccc3)c12 [Example 70]")
"100 to 1000 nM"
>>> result("Cc1n[nH]c2ccnc(-c3ncco3)c12 [Example 129]")
"1000 to 10000 nM"
>>> result("CC1CCN(C(=O)CCc2n[nH]c3ccnc(NC4CCCCC4)c23)CC1 [Example 192]")
"100 to 1000 nM"
>>> result("CCC(CC)Nc1nccc2[nH]nc(C)c12 [Example 41]")
"100 to 1000 nM"
>>> result("Cc1n[nH]c2ccnc(NCCCn3cccn3)c12 [Example 345]")
"1000 to 10000 nM"
>>> result("Cn1nccc1NC(=O)c1ccc(CCc2n[nH]c3ccnc(NC4CCCCC4)c23)cc1 [Example 252]")
"100 to 1000 nM"
>>> result("Fc1cc(C(F)(F)F)ccc1-c1n[nH]c2ccnc(NC3CCCCC3)c12 [Example 166]")
"1000 to 10000 nM"
>>> result("Cc1n[nH]c2ccnc(OCC3CC3)c12 [Example 123]")
"100 to 1000 nM"
>>> result("O=C(CCc1n[nH]c2ccnc(NC3CCCCC3)c12)N1CCCC(C(F)(F)F)C1 (stereo not shown) [Example 202]")
"100 to 1000 nM"
>>> result("Cc1n[nH]c2ccnc(O[C@@H]3C[C@@H]4CC[C@H]3C4)c12 (racemic) [Example 296]")
"< 100 nM"
>>> result("Cc1n[nH]c2ccnc(NCCCn3ccnc3)c12 [Example 15]")
"100 to 1000 nM"
